Data origin, for the record: patent US10131650B2

Experiment: Water solubility in phosphate buffered saline
Assay type: physicochemical
Details: aqueous buffer; phosphate buffered saline at pH 7.4
Excerpt: As a result of analyzing the three peptoids, the selected compounds had the following structures of 9a (Chemical formula 4), 9b (Chemical formula 5) and 9c (Chemical formula 6), respectively.
Reported solubility values for the following molecules.

Completed entries (count: 2):
molecule: CCNc1nc(NCc2ccccc2)nc(N2CCN(c3nc(N)nc(NCc4ccc5c(c4)OCO5)n3)CC2Cc2ccccc2)n1 (stereo not drawn)
observed result: ~100 µg/mL
//
molecule: CCCN(CC1CC1)c1nc(N)nc(N2CCN(c3nc(NCC)nc(NCc4ccc5c(c4)OCO5)n3)C(Cc3ccccc3)C2)n1 (stereo not drawn)
observed result: ~100 µg/mL

// next item, solubility requested
Inquiry: Any idea what solubility was measured for CCNc1nc(NCCc2ccc(O)cc2)nc(N2CCN(c3nc(N)nc(Nc4ccc(Oc5ccccc5)cc4)n3)CC2Cc2ccccc2)n1 (stereo not drawn) ?
Reply text: ~100 µg/mL
